Reference for the values: patent US4820695A

Test system: Mycoplasma hyopneumoniae S5972
Assay: MIC, broth-dilution microtiter test (Table X)
Type: cell-based
Conditions: Mesomycoplasma hyopneumoniae, read-out: MIC
Give MIC for every item shown.
Answers are plain numbers, in µg/mL.

Consider the reported MIC for these compounds:
CCC1OC(=O)CC(O)C(C)C(OC2OC(C)C(O)C(N(C)C)C2O)C(CCN2CCCCCC2)CC(C)C(=O)C=CC(C)=CC1COC1OC(C)C(O)C(OC)C1OC (centres unmarked) [Compound D5] | 1.56
CCC1OC(=O)CC(O)C(C)C(OC2OC(C)C(O)C(N(C)C)C2O)C(CCN2CCCCCCCC2)CC(C)C(=O)C=CC(C)=CC1COC1OC(C)C(O)C(OC)C1OC (centres unmarked) [Compound D7] | 1.56
CCC1OC(=O)CC(O)C(C)C(OC2OC(C)C(O)C(N(C)C)C2O)C(CCN2CCCCCCC2)CC(C)C(=O)C=CC(C)=CC1COC1OC(C)C(O)C(OC)C1OC (centres unmarked) [Compound D6] | 1.56
CCC1OC(=O)CC(O)C(C)C(OC2OC(C)C(O)C(N(C)C)C2O)C(CCN2CCCCC2)CC(C)C(=O)C=CC(C)=CC1COC1OC(C)C(O)C(OC)C1OC (centres unmarked) [Compound D2, 20-DH-DO-20-(piperidin-1-yl)desmycosin] | 12.5

Indicate the recorded MIC value for this compound: CCC1OC(=O)CC(O)C(C)C(OC2OC(C)C(O)C(N(C)C)C2O)C(CCN2C3CCCCC3C3CCCCC32)CC(C)C(=O)C=CC(C)=CC1COC1OC(C)C(O)C(OC)C1OC (centres unmarked) [Compound D25]
0.39

====

Tested on: Streptococcus pyogenes C203
Assay: ED50 in mice experimentally infected with S. pyogenes C203 (Table XI)
Format: in vivo
Conditions: Streptococcus pyogenes, C203, Oral, doses given 1 and 4 hours postinfection, read-out: ED50
Give ED50 for every item shown.
Answers are plain numbers, in mg/kg.

Consider the reported ED50 for these molecules:
CCC1OC(=O)CC(O)C(C)C(OC2OC(C)C(O)C(N(C)C)C2O)C(CCN2CCC3CCCCC32)CC(C)C(=O)C=CC(C)=CC1COC1OC(C)C(O)C(OC)C1OC (centres unmarked) | 37.9
CCC1OC(=O)CC(O)C(C)C(OC2OC(C)C(O)C(N(C)C)C2O)C(CCN2CC=C(c3ccccc3)CC2)CC(C)C(=O)C=CC(C)=CC1COC1OC(C)C(O)C(OC)C1OC (centres unmarked) | 12.5
CCC1OC(=O)CC(O)C(C)C(OC2OC(C)C(O)C(N(C)C)C2O)C(CCN2CCC3CCCCC3C2)CC(C)C(=O)C=CC(C)=CC1COC1OC(C)C(O)C(OC)C1OC (centres unmarked) | 10.3

Consider now this further molecule.
Indicate the recorded ED50 value for this molecule: CCC1OC(=O)CC(O)C(C)C(OC2OC(C)C(O)C(N(C)C)C2O)C(CCN2CCCCCCCC2)CC(C)C(=O)C=CC(C)=CC1COC1OC(C)C(O)C(OC)C1OC (centres unmarked)
12

====

Tested on: Staphylococcus aureus V41
Assay: MIC, standard agar-dilution assay (Table IX)
Format: cell-based
Settings: Staphylococcus aureus V41, Penicillin-resistant strain, read-out: MIC
Give MIC for every item shown.
Answers are plain numbers, in µg/mL.

Consider the reported MIC for these molecules:
CCC1OC(=O)CC(O)C(C)C(OC2OC(C)C(O)C(N(C)C)C2O)C(CCN2CC=C(c3ccccc3)CC2)CC(C)C(=O)C=CC(C)=CC1COC1OC(C)C(O)C(OC)C1OC (centres unmarked) | 0.5
CCC1OC(=O)CC(O)C(C)C(OC2OC(C)CC(N(C)C)C2O)C(CCN2CCCCCC2)CC(C)C(=O)C=CC(C)=CC1COC1OC(C)C(O)C(OC)C1OC (centres unmarked) | 0.5
CCC1OC(=O)CC(O)C(C)C(OC2OC(C)C(O)C(N(C)C)C2O)C(CCN2CC3CCC(CC3)C2)CC(C)C(=O)C=CC(C)=CC1COC1OC(C)C(O)C(OC)C1OC (centres unmarked) | 0.25
CCC1OC(=O)CC(O)C(C)C(OC2OC(C)C(O)C(N(C)C)C2O)C(CCN2CCC3CCCCC3C2)CC(C)C(=O)C=CC(C)=CC1COC1OC(C)C(O)C(OC)C1OC (centres unmarked) | 0.5
CCC1OC(=O)CC(O)C(C)C(OC2OC(C)C(O)C(N(C)C)C2O)C(CCN2CCCCCC2)CC(C)C(=O)C=CC(C)=CC1COC1OC(C)C(O)C(OC)C1OC (centres unmarked) | 0.5
CCC1OC(=O)CC(O)C(C)C(OC2OC(C)C(O)C(N(C)C)C2O)C(CCN2CCCCCCC2)CC(C)C(=O)C=CC(C)=CC1COC1OC(C)C(O)C(OC)C1OC (centres unmarked) | 0.5
CCC1OC(=O)CC(O)C(C)C(OC2OC(C)C(O)C(N(C)C)C2O)C(CCN2CCCCCCC2)CC(C)C(=O)C=CC(C)=CC1COC1OC(C)C(O)C(O)C1OC (centres unmarked) | 1
CCC1OC(=O)CC(O)C(C)C(OC2OC(C)C(O)C(N(C)C)C2O)C(CCN2CCc3ccccc3C2)CC(C)C(=O)C=CC(C)=CC1COC1OC(C)C(O)C(OC)C1OC (centres unmarked) | 0.5
CCC1OC(=O)CC(O)C(C)C(OC2OC(C)C(O)C(N(C)C)C2O)C(CCN2CCC(c3ccccc3)CC2)CC(C)C(=O)C=CC(C)=CC1COC1OC(C)C(O)C(OC)C1OC (centres unmarked) | 0.5
CCC1OC(=O)CC(O)C(C)C(OC2OC(C)C(O)C(N(C)C)C2O)C(CCN2C(C)CCCC2C)CC(C)C(=O)C=CC(C)=CC1COC1OC(C)C(O)C(OC)C1OC (centres unmarked) | 8

Consider now this further molecule.
Retrieve MIC on Staphylococcus aureus V41; query CCC1OC(=O)CC(O)C(C)C(OC2OC(C)C(O)C(N(C)C)C2O)C(CCN2CC=CCC2)CC(C)C(=O)C=CC(C)=CC1COC1OC(C)C(O)C(OC)C1OC (centres unmarked)
0.5
